# credit: the supplement of paper PMC10567573

B1: RBBP5 (parent)
chain: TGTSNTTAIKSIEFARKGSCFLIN

Variants of: B1
TEST_PROTOCOL: protein stability index of a GFP-peptide fusion (GPS, HEK-293T) (PSI 1-6); higher = more stable;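 further: lentivirally expressed fusions sorted by FACS into six bins by GFP to DsRed ratio, PSI derived from sequencing read proportions per bin multiplied by bin number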
REPORTED_CONDITIONS: c terminus: a fixed tail appended
PARAMETER: protein stability index
One number for each entry.

{"columns": ["VAR", "protein stability index"],
 "data": [
  ["I9G", 2.37],
  ["K10I", 2.15],
  ["G2N", 2.29],
  ["S19W", 1.94],
  ["T3V", 1.87]
]}

Q: For the variant `I23P` , what protein stability index is on record?
Result: 2.82
